Reference source for all entries: patent US20080113383A1

Target: EGLN2
Assay: cell-based or functional assay
Where no end group is shown, it is not given here.
measurement_label: Activity (%)*
Report the value in % with no unit label.

- DTDLDLEAQAPYIPADDDFQ [DTDLDLEAQApYIPADDDFQ]: 19.1
- DTDLDLEMLIPYIPMDDDFQ (not fully specified; printed as DTDLDLEMLIpYIPMDDDFQ) [DTDLDLEMLIpYIPMDDDFQ]: 17.8
- DTDLDAEASAPYIPADDDFQ [DTDLDAEASApYIPADDDFQ]: 8.82
- DTDLDFEALAPYIPADDDFQ [DTDLDFEALApYIPADDDFQ]: 58.6
- DTDLDLEANAPYIPADDDFQ [DTDLDLEANApYIPADDDFQ]: 37.7

// DTDLDLEMLAPYIPMDDDFQ [Control peptide DTD20, DTDLDLEMLApYIPMDDDFQ] : Activity (%)* value = 100

// DTDLDIEAIAPYIPADDDFQ [DTDLDIEAIApYIPADDDFQ] : Activity (%)* value = 64.3
